pIC50: −log10 of the molar value.
Listing of pIC50 toward UniProt P36897, each taken from a published source.
experimental.readout: pIC50

INSERT INTO assay_data (molecule, assay_value) VALUES
  ('NCC1CC(n2cc(-c3ccoc3)c3c(N)ncnc32)C1 (stereo not drawn)', 5.07),
  ('CCOCc1cnc(C)nc1Nc1cncc(-c2ccnc(-c3ccccc3F)c2)c1', '5.00 to 6.00'),
  ('O=[N+]([O-])c1cn(-c2cc(-c3cc(Cl)ccc3F)nc3ncccc23)c2ccncc12', '> 7.00'),
  ('Cc1cccc(-c2cc(Nc3ccnc4[nH]ccc34)c(N(C)C)[nH]c2=O)n1', '5.30 to 5.70'),
  ('Nc1ncc(-c2ccc(OCCCN3CCCCC3)cc2)cc1C(=O)NC1CCCCC1', 5.46),
  ('CC(C)(C)CC(=O)Nc1cc(Nc2cc(-c3ccccc3F)nc3ncccc23)ncn1', '> 7.00'),
  ('CN1CCC(n2cc(-c3cncc(-c4ccnc(-c5ccccc5F)c4)c3)cn2)CC1', '> 6.00'),
  ('CN(C)c1[nH]c(=O)c(-c2cc(Cl)ccc2F)cc1Nc1ccncc1C(N)=O', '≥ 6.30'),
  ('Cc1cccc(-c2nc(CNCc3ccc4c(c3)OCO4)[nH]c2-c2ccc3ncnn3c2)n1', '6.00 to 7.00'),
  ('Cc1ccc(Oc2ccnc(Nc3ccc(C(C)(C)O)nc3)c2)c(C)n1', 7.54),
  ('Nc1ncc(-c2ccc([C@]34C[C@H]3CN(CCN3CCOCC3)C4)cc2)cc1C(=O)N[C@H]1CC[C@H](O)CC1', 5.51),
  ('Fc1ccc(Cl)cc1-c1cc(Nc2ccncc2OCCCN2CCOCC2)c2cccnc2n1', '> 7.00'),
  ('C[C@H](CO)NC(=O)c1cnccc1Nc1cc(-c2cc(Cl)ccc2F)c(=O)n2c1N(C)CCC2', '< 5.30'),
  ('CC(C)(C)c1nc(C2CC2)sc1Oc1ccnc(Nc2ccnc(C(C)(C)O)c2)c1', 5.17),
  ('CN1CCN(c2ccc(Nc3cc(Nc4cc(-c5cc(Cl)ccc5F)nc5ncccc45)ccn3)cc2)CC1', '6.00 to 7.00'),
  ('Cc1cccc2c(Nc3ccnc(Nc4cccc(C5CCOCC5)c4)c3)cnnc12', '8.30 to 8.70'),
  ('Cc1cccc(-c2nc(OCc3cnn(C)c3)nc3sc(C(N)=O)c(N)c23)n1', '> 7.00'),
  ('Cc1cccc(-c2cc(Nc3ccnc(Cl)c3)c3cccnc3n2)n1', '6.00 to 7.00'),
  ('Cc1cc(Oc2ccnc(Nc3ccnc(C(C)(C)O)c3)c2)n(C2CCOCC2)n1', 7.22),
  ('COCCN1C(=O)Cc2cc(-c3cncc(-c4ccc(=O)n(C(C)C)c4)c3)ccc21', 5.17),
  ('NC(=O)c1sc2nc(OCC3CCC(CO)CC3)nc(-c3cccc(Cl)c3)c2c1N (stereo not drawn)', '6.30 to 7.00'),
  ('CC(=O)Nc1cc(Nc2cc(-c3ccc(F)c(Cl)c3)c(=O)[nH]c2C(C)C)ccn1', '≥ 6.30'),
  ('O=C(O)c1cnccc1Nc1nc(-c2cc(Cl)ccc2F)nc2ncccc12', 6.64),
  ('COc1nc(-c2cccc(C)n2)c2c(N)c(C(N)=O)sc2n1', '> 7.00'),
  ('NC(=O)c1sc2nc(OC[C@H]3CCC(=O)N3)nc(-c3cccc(Cl)c3)c2c1N', '6.30 to 7.00'),
  ('CC(C)c1[nH]c(=O)c(-c2cc(Cl)ccc2F)cc1Nc1ccnc2ccncc12', '5.30 to 5.70'),
  ('Cc1cccc2c(Nc3ccnc(Nc4ccc(N5CCOCC5)c(F)c4)n3)cnnc12', '> 8.00'),
  ('Fc1ccc(Cl)cc1-c1cc(Nc2cc(NC3CCCCC3)ncn2)c2cccnc2n1', '5.00 to 6.00'),
  ('CCN(CC)CCOc1ncc(-c2cc(-c3cc(Cl)ccc3F)nc3ncccc23)c2ccncc12', '> 6.00'),
  ('Nc1ncnc2c1c(-c1cccc(O)c1)cn2C1CC(CN2CCCC2)C1 (stereo not drawn)', 6.92),
  ('Nc1ncc(-c2ccc([C@@]34C[C@@H]3CN(CCN3CCOCC3)C4)cc2)cc1C(=O)N[C@H]1CC[C@H](O)CC1', 5.59),
  ('CCN(CC)CCOc1ccc(-c2cc(-c3cc(F)ccc3F)nc3ncccc23)c2ccncc12', '> 6.00'),
  ('CC(C)(O)c1cc(Nc2cc(Oc3cc(C(F)(F)F)nn3-c3ccc(C#N)cc3)ccn2)ccn1', 6.85);
